Target desc: FLT3 kinase (Homo sapiens)
Sequence (P36888 27-993): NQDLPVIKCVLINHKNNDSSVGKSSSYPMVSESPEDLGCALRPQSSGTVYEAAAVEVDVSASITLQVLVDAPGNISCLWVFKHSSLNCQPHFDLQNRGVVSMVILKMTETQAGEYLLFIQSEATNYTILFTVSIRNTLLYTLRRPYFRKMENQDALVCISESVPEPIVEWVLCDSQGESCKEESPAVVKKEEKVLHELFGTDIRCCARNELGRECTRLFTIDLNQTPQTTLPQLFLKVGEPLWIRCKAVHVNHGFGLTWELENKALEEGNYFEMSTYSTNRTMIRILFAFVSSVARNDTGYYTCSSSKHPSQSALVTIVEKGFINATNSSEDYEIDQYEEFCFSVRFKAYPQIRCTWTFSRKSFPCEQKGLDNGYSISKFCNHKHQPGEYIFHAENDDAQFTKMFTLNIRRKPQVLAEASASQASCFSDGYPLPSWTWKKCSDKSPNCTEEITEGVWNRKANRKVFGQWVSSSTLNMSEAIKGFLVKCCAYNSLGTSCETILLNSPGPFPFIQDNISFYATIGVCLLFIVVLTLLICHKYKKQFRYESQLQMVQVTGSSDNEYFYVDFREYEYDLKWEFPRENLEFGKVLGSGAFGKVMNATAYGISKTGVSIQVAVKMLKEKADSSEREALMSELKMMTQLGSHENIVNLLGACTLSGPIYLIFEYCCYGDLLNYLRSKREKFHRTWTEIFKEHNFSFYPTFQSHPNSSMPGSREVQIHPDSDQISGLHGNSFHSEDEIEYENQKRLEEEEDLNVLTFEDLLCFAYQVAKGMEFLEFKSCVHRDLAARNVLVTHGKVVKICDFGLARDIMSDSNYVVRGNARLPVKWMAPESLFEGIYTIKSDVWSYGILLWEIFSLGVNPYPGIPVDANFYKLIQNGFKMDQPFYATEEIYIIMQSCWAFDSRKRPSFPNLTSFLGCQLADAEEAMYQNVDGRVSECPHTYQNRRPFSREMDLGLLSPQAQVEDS
Reported Kd by item:

| Compound | Kd |
| --- | --- |
| CC1(c2cc(NC(=O)Cc3ccc(-c4ccc(N)nc4)cc3)no2)CCC1.CS(=O)(=O)O [Example 144, methanesulfonate] | ≤ 1 nM |
| CC1(c2cc(NC(=O)Nc3ccc(-c4ccc(N)nc4)cc3)no2)CC1.CS(=O)(=O)O [Example 106, methanesulfonate] | ≤ 1 nM |
| CN1CC(=O)Nc2ncc(-c3ccc(CC(=O)Nc4cc(C(C)(C)C)on4)cc3)cc2C1 [Example 190] | 1 to 10 nM |
| CS(=O)(=O)O.Nc1ccc(-c2ccc(CC(=O)Nc3cc(C4CCC4)no3)cc2)cn1 [Example 143, methanesulfonate] | ≤ 1 nM |
| CC1(c2cc(NC(=O)Cc3ccc(-c4cnc(N)c(F)c4)cc3)no2)CC1.CS(=O)(=O)O [Example 138, methanesulfonate] | ≤ 1 nM |

----------
Target desc: KIT kinase (Homo sapiens, UniProt P10721)
Sequence (P10721 26-976): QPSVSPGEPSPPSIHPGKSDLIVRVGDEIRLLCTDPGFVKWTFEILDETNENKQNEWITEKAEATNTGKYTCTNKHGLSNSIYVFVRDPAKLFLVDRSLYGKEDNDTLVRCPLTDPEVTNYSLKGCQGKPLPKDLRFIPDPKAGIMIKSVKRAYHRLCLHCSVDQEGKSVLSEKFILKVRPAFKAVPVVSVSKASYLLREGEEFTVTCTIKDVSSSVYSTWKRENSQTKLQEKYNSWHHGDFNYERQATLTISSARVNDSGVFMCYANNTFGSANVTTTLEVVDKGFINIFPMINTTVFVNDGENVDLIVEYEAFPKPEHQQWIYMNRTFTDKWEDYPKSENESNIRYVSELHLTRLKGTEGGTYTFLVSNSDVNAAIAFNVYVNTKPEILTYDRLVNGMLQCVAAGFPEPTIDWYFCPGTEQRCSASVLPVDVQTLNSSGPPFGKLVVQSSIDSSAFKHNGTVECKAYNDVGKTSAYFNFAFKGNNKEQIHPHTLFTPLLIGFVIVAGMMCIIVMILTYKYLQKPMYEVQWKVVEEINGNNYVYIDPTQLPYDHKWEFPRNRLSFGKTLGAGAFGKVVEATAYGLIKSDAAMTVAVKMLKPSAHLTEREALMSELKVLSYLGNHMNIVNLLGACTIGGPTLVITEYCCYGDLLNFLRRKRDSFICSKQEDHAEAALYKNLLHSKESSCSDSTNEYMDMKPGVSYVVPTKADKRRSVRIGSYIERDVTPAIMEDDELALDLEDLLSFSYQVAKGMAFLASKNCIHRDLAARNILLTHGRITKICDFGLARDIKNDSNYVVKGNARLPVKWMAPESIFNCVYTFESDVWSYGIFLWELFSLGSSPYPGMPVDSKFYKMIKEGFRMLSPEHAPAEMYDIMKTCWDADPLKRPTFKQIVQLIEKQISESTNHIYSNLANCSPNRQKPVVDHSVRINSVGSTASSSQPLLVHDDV

| Molecule | Target desc | Kd |
| --- | --- | --- |
| CC(=O)OCC1(c2cc(NC(=O)Cc3ccc(-c4ccc(N)nc4)cc3)no2)CC1 | KIT kinase (Homo sapiens, UniProt P10721) | 1 to 10 nM |
| Cc1cc(-c2ccc(CC(=O)Nc3cc(C(C)(C)C)on3)cc2)cnc1N [Example 85, methanesulfonate] | KIT kinase (Homo sapiens, UniProt P10721) | 1 to 10 nM |
| Nc1ccc(-c2ccc(CC(=O)Nc3cc(C4(C(F)(F)F)CCC4)on3)cc2)c(F)n1 | KIT kinase (Homo sapiens, UniProt P10721) | 1 to 10 nM |
| Cn1nc(C(C)(C)CO)cc1NC(=O)Nc1ccc(-c2ccc(N)nc2)cc1 [Example 82, methanesulfonate] | KIT kinase (Homo sapiens, UniProt P10721) | 1 to 10 nM |
| CC(C(=O)Nc1cc(C(C)(C)C)on1)c1ccc(-c2ccc(N)nc2)cc1 (racemic) | KIT kinase (Homo sapiens, UniProt P10721) | 10 to 100 nM |
| COc1cc(-c2ccc(N)nc2)ccc1NC(=O)Nc1cc(C(C)(CF)CF)on1 [Example 68, methanesulfonate] | KIT kinase (Homo sapiens, UniProt P10721) | 1 to 10 nM |
| COc1nc(N)ncc1-c1ccc(NC(=O)Nc2cc(C(C)(C)C)on2)cc1 | KIT kinase (Homo sapiens, UniProt P10721) | ≤ 1 nM |
| CC(C)(C)c1cc(NC(=O)Nc2ccc(-c3cnc4c(c3)OCC(CCO)N4)cc2)no1 (stereo not shown) | KIT kinase (Homo sapiens, UniProt P10721) | 1 to 10 nM |
| CC1(c2cc(NC(=O)Cc3ccc(-c4cnc(N)c(F)c4)cc3)no2)CC1.CS(=O)(=O)O [Example 138, methanesulfonate] | KIT kinase (Homo sapiens, UniProt P10721) | ≤ 1 nM |
| O=C(Nc1ccc(-c2ccc(NCCN3CCOCC3)nc2)cc1)Nc1cc(C2(C(F)(F)F)CC2)on1 [Example 36, methanesulfonate] | KIT kinase (Homo sapiens, UniProt P10721) | ≤ 1 nM |
| CC(C)(C)c1cc(NC(=O)Cc2ccc(-c3cnc4c(c3)CCCN4)cc2)no1 [Example 120, methanesulfonate] | KIT kinase (Homo sapiens, UniProt P10721) | 1 to 10 nM |
| CC(CF)(CF)c1cc(NC(=O)Nc2ccc(-c3ccc(NCCN4CCOCC4)nc3)cc2)no1 [Example 37, methanesulfonate] | KIT kinase (Homo sapiens, UniProt P10721) | ≤ 1 nM |
| CC(C)(C)c1cc(NC(=O)C(N)c2ccc(-c3ccc(N)nc3)cc2)no1 (stereo not shown) | KIT kinase (Homo sapiens, UniProt P10721) | 10 to 100 nM |
| CC(F)(F)C1(c2cc(NC(=O)Cc3ccc(-c4cnc(N)cc4F)cc3)no2)CC1 | KIT kinase (Homo sapiens, UniProt P10721) | 1 to 10 nM |
| CC(C)(CO)c1cc(NC(=O)Cc2ccc(-c3ccc(N)nc3)cc2)no1 [Example 88, methanesulfonate] | KIT kinase (Homo sapiens, UniProt P10721) | 1 to 10 nM |
| CC1(CCNc2ccc(-c3ccc(CC(=O)Nc4cc(C(C)(C)C)on4)cc3)cn2)COC1 | KIT kinase (Homo sapiens, UniProt P10721) | 10 to 100 nM |
| Cc1nc(N)ccc1-c1ccc(CC(=O)Nc2cc(C(C)(C)C)on2)cc1 [Example 87, methanesulfonate] | KIT kinase (Homo sapiens, UniProt P10721) | 1 to 10 nM |
| CC(C)(C)c1cc(NC(=O)Cc2ccc(-c3ccc(N)nc3F)cc2)on1.CS(=O)(=O)O [Example 119, methanesulfonate] | KIT kinase (Homo sapiens, UniProt P10721) | 1 to 10 nM |
| CC(C)(C)c1cc(NC(=O)Nc2ccc(-c3cnc(NCCN4CCOCC4)nc3)cc2)no1 | KIT kinase (Homo sapiens, UniProt P10721) | ≤ 1 nM |
| Nc1cc(F)c(-c2ccc(CC(=O)Nc3cc(C4(C(F)(F)F)CC4)on3)cc2)cn1 | KIT kinase (Homo sapiens, UniProt P10721) | 1 to 10 nM |
| CC(C)(C)c1cc(NC(=O)Nc2ccc(-c3cnc(NCCN4CCOCC4)c(C#N)c3)cc2)no1 | KIT kinase (Homo sapiens, UniProt P10721) | 1 to 10 nM |
| CC(C)(CF)c1cc(NC(=O)Nc2ccc(-c3ccc(N)nc3)cc2)on1 | KIT kinase (Homo sapiens, UniProt P10721) | 1 to 10 nM |
| CC1(c2cc(NC(=O)Cc3ccc(-c4cnc(N)c(C(F)(F)F)c4)cc3)no2)CC1 | KIT kinase (Homo sapiens, UniProt P10721) | 1 to 10 nM |
| Cc1cc(N)ncc1-c1ccc(NC(=O)Nc2cc(C(C)(C)C)on2)cc1 | KIT kinase (Homo sapiens, UniProt P10721) | 1 to 10 nM |
| CC1(c2cc(NC(=O)Cc3ccc(-c4cnc(N)c(F)c4)cc3)no2)COC1.CS(=O)(=O)O [Example 146, methanesulfonate] | KIT kinase (Homo sapiens, UniProt P10721) | ≤ 1 nM |

----------
Target desc: CSF-1R kinase (Homo sapiens)
Construct: made in house; host or cells: T7 phage display or HEK-293 cells
Sequence (P07333 20-972): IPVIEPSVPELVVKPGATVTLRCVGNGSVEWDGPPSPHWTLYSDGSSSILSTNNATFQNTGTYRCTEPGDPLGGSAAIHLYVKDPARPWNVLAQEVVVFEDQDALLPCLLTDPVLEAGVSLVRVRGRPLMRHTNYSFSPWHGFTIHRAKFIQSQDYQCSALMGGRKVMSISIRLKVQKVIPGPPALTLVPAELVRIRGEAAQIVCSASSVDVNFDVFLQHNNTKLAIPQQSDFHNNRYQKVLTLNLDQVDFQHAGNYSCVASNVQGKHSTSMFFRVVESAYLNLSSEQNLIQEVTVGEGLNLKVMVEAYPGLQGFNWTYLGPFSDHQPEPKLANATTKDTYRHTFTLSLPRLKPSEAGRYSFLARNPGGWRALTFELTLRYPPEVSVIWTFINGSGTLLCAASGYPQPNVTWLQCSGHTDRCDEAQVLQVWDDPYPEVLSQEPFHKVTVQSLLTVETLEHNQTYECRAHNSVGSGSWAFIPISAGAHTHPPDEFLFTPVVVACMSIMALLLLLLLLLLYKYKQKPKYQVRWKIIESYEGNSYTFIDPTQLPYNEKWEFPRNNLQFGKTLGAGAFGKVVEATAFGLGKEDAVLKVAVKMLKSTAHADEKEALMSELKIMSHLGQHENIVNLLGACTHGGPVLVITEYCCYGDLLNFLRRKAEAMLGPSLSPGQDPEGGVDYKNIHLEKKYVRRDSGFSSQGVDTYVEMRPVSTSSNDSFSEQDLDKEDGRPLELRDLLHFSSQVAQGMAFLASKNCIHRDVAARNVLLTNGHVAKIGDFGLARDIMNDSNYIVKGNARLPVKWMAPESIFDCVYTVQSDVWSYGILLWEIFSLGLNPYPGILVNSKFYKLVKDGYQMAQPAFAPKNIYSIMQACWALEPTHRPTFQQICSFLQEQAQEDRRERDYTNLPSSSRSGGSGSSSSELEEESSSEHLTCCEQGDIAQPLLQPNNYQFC
Protocol description: Competition binding assay, CSF-1R Kd
Below, each entry is listed with its recorded Kd.

| Compound | Kd |
| --- | --- |
| CC(C)(C)c1cc(NC(=O)Nc2ccc(-c3cnc(NCCN4CCCCC4)nc3)cc2)no1 | ≤ 10 nM |
| CCN1CCCC1CNc1ccc(-c2ccc(NC(=O)Nc3cc(C(C)(C)C)on3)cc2)cn1 (stereo not shown) | 10 to 100 nM |
| CC1(c2cc(NC(=O)Cc3ccc(-c4ccc(N)nc4F)cc3)no2)COC1 | ≤ 10 nM |
| CN(C(=O)Nc1cc(C(C)(C)C)on1)c1ccc(-c2ccc(N)nc2)cc1 | ≤ 10 nM |
| CC1(c2cc(NC(=O)Nc3ccc(-c4ccc(N)nc4)cc3)no2)COC1.CS(=O)(=O)O [Example 98, methanesulfonate] | ≤ 10 nM |
| CC(C)(C)c1cc(NC(=O)Nc2ccc(-c3cnc4c(c3)CCC(=O)N4)cc2)no1 | ≤ 10 nM |
| CC(F)(F)C1(c2cc(NC(=O)Cc3ccc(-c4ccc(N)nc4F)cc3)no2)CC1 | ≤ 10 nM |
| CC(C)(C)c1cc(NC(=O)Nc2ccc(-c3cnc(N)c(COCCO)c3)cc2)no1 | ≤ 10 nM |
| CC(C)(C)c1cc(NC(=O)Cc2ccc(-c3cnc4c(c3)CCCN4)cc2)no1 [Example 120, methanesulfonate] | ≤ 10 nM |
| CC(CF)(CF)c1cc(NC(=O)Nc2ccc(-c3ccc(N)nc3)cc2)no1 [Example 34, methanesulfonate] | ≤ 10 nM |
| CC(C)(F)c1cc(NC(=O)Cc2ccc(-c3ccc(N)nc3)cc2)on1.CS(=O)(=O)O [Example 101, methanesulfonate] | ≤ 10 nM |
| Cc1cc(-c2ccc(CC(=O)Nc3cc(C(C)(C)C)on3)cc2)cnc1N [Example 85, methanesulfonate] | ≤ 10 nM |
| Cc1nc(N)ccc1-c1ccc(NC(=O)Nc2cc(C(C)(C)C)on2)nc1 | 10 to 100 nM |
| CC(C)(C)c1cc(NC(=O)Cc2ccc(-c3cnc(N)c(C(F)(F)F)c3)cc2)no1.CS(=O)(=O)O [Example 116, methanesulfonate] | ≤ 10 nM |
| Cc1nc(N)ncc1-c1ccc(NC(=O)Nc2cc(C(C)(C)C)on2)cc1 | ≤ 10 nM |
| CC1(c2cc(NC(=O)Cc3ccc(-c4cnc(N)c(Cl)c4)cc3)no2)CC1 | ≤ 10 nM |
| O=C(Cc1cccc(C(F)(F)F)c1)Nc1ccc(-c2cnc(NC3CC3)nc2)cn1 | ≤ 10 nM |
| CC(C)(F)c1cc(NC(=O)Nc2ccc(-c3ccc(N)nc3)cn2)on1 | ≤ 10 nM |
| CC(C)(C)c1cc(NC(=O)Cc2ccc(-c3cnc4[nH]c(=O)[nH]c4c3)cc2)no1 | ≤ 10 nM |
| CC(C)(C)c1cc(NC(=O)Cc2ccc(-c3cnc(N)c(F)c3)cc2)no1.CS(=O)(=O)O [Example 94, methanesulfonate] | ≤ 10 nM |
| CC(C)(C)c1cc(NC(=O)Cc2ccc(-c3cnc(N)cc3F)cc2)no1.CS(=O)(=O)O [Example 151, methanesulfonate] | ≤ 10 nM |
| Cn1cc(-c2cc(-c3ccc(CC(=O)Nc4cc(C(C)(C)C)on4)cc3)cnc2N)cn1 | 10 to 100 nM |
| CC(C)(C)c1cc(NC(=O)Cc2ccc(-c3cnc(N)c(S(=O)(=O)C(C)(C)C)c3)cc2)no1 | > 500 nM |
| Nc1ccc(-c2ccc(CC(=O)Nc3cc(C4(C(F)(F)F)CC4)on3)cc2)cn1 | ≤ 10 nM |
| Cn1nc(C(C)(C)CO)cc1NC(=O)Nc1ccc(-c2ccc(N)nc2)cc1 [Example 82, methanesulfonate] | 10 to 100 nM |
| Cc1nc(N)ccc1-c1ccc(CC(=O)Nc2cc(C(C)(C)C)on2)cc1 [Example 87, methanesulfonate] | 10 to 100 nM |
| CS(=O)(=O)O.Nc1ccc(-c2ccc(CC(=O)Nn3cc(C(F)(F)F)cn3)cc2)cn1 [Example 126, methanesulfonate] | 10 to 100 nM |
| CN1CCCC1CCNc1ccc(-c2ccc(NC(=O)Nc3cc(C(C)(C)C)on3)cc2)cn1 (stereo not shown) | ≤ 10 nM |
